Collected LC50 (ppm) 21 days values appear next to each entry.
System: German cockroach 2nd instars (Blattella germanica)
TEST_PROTOCOL: Continuous, low-dose ingestion exposure (treated cornmeal)
Assay type: in vivo
CONDITION_DESCRIPTION: 21 days

Before answering, review these 3 worked examples.
| COMPOUND | TEST_VALUE |
| --- | --- |
| CCN(C(=O)Nc1cc(Cl)c(OC(F)(F)C(F)C(F)(F)F)c(Cl)c1F)C(=O)c1c(F)cccc1F (stereo not shown) | 8.0 ppm |
| CCN(C(=O)NC(=O)c1c(F)cccc1F)c1cc(Cl)c(OC(F)(F)C(F)C(F)(F)F)c(Cl)c1F (stereo not shown) | 0.35 ppm |
| O=C(NC(=O)c1c(F)cccc1F)Nc1cc(Cl)c(OC(F)(F)C(F)F)c(Cl)c1 [hexaflumuron, reference compound] | > 200 ppm |

# query: LC50 (ppm) 21 days | item O=C(NC(=O)c1c(F)cccc1F)Nc1cc(Cl)c(OC(F)(F)C(F)C(F)(F)F)c(Cl)c1F (stereo not shown) | system: German cockroach 2nd instars (Blattella germanica)
< 2.2 ppm

====

Collected LC50 (ppm) 42 days values appear next to each entry.
Tested on: German cockroach 2nd instars (Blattella germanica)
TEST_PROTOCOL: Continuous, low-dose ingestion exposure (treated cornmeal)
Format: in vivo
CONDITION_DESCRIPTION: 42 days

Before answering, review these 3 worked examples.
| MOLECULE | TARGET_ENTITY | LC50 (ppm) 42 days |
| --- | --- | --- |
| O=C(NC(=O)c1c(F)cccc1F)Nc1cc(Cl)c(OC(F)(F)C(F)C(F)(F)F)c(Cl)c1F (stereo not shown) | German cockroach 2nd instars (Blattella germanica) | <0.78 ppm |
| CCN(C(=O)Nc1cc(Cl)c(OC(F)(F)C(F)C(F)(F)F)c(Cl)c1F)C(=O)c1c(F)cccc1F (stereo not shown) | German cockroach 2nd instars (Blattella germanica) | 1.5 ppm |
| CCN(C(=O)NC(=O)c1c(F)cccc1F)c1cc(Cl)c(OC(F)(F)C(F)C(F)(F)F)c(Cl)c1F (stereo not shown) | German cockroach 2nd instars (Blattella germanica) | 0.26 ppm |

API: the following record is the query input.
Given the molecule O=C(NC(=O)c1c(F)cccc1F)Nc1cc(Cl)c(OC(F)(F)C(F)F)c(Cl)c1 [hexaflumuron, reference compound] , what is its reported LC50 (ppm) 42 days?
> 200 ppm
